Biological target: MELK (Homo sapiens)
Experiment: Kinase assay: MELK activity, phosphorylation of FITC-labeled histone H3 peptide measured by IMAP fluorescence polarization
Type: biochemical
Settings: read-out: IC50 (μM) (kinase assay)
Counter-ions that a name gives are not always drawn.
Entries and their measured IC50 follow.
Hi! Could you send only the number? It should be in µM, unit omitted.

Use the examples below as a reference point.
CN(CC#N)C[C@H]1CC[C@@H](Nc2c(C(=O)C3CC3)cnc3ccc(-c4cc(F)c(O)c(Cl)c4)cc23)CC1    0.01
CC(=O)c1cnc2ccc(-c3cc(F)c(O)c(Cl)c3)cc2c1N[C@H]1CC[C@H](CN2CCN(C)CC2)CC1 [Example 781, hydrochloride]    0.013
NC1CCN(c2ncc(Nc3c(C(=O)C4CC4)cnc4ccc(-c5cc(F)c(O)c(Cl)c5)cc34)cn2)C1 (stereo not shown)    0.003
COc1cc(-c2ccc3ncc(C(=O)C4CC4)c(NC4CCC(C)(N)CC4)c3c2)cc(Cl)c1O (stereo not shown)    0.0012

# input Return reported IC50; argument: CCCC(=O)c1cnc2ccc(-c3cc(Cl)c(O)c(OC)c3)cc2c1N[C@H]1CC[C@H](N)CC1
# output 0.0038

# input Would you mind doing COC1CCN(C[C@H]2CC[C@H](Nc3c(C(=O)C4CC4)cnc4ccc(-c5cc(F)c(O)c(Cl)c5)cc34)CC2)C1 (stereo partly shown) as well?
# output 0.024

# input Would you mind doing CC(=O)c1cnc2ccc(-c3cc(Cl)c(O)c(Cl)c3)cc2c1N[C@H]1CC[C@H](N(C)C)CC1 as well?
# output 0.0022

# input Would you mind doing COc1cc(-c2ccc3ncc(C(=O)C4CC4)c(NC4CCN(C5CCNC5)CC4)c3c2)cc(Cl)c1O (stereo not shown) as well?
# output 0.0029

# input Would you mind doing NC[C@H]1CC[C@H](Nc2c(C(=O)C3CC3)cnc3ccc(-c4cc(Cl)c(O)c(Cl)c4)cc23)CC1 as well?
# output 0.0029

# input Would you mind doing COc1cc(-c2ccc3ncc(C(=O)C4CC4)c(N[C@H]4CC[C@H](CN5CC[C@@H](F)C5)CC4)c3c2)cc(Cl)c1O as well?
# output 0.011

# input Would you mind doing CCC(=O)c1cnc2ccc(-c3cc(F)c(O)c(Cl)c3)cc2c1N[C@H]1CC[C@H](N(C)C)CC1 as well?
# output 0.0062

# input Would you mind doing CC(=O)c1cnc2ccc(-c3cc(Cl)c(O)c(Cl)c3)cc2c1Nc1ccc(CCN(C)C)cc1 as well?
# output 0.0017

# input Would you mind doing CCCC(=O)c1cnc2ccc(-c3cc(F)c(O)c(Cl)c3)cc2c1N[C@H]1CC[C@H](CN(C)C)CC1 as well?
# output 0.0073

# input Would you mind doing COc1cc(-c2ccc3ncc(C(=O)C4CC4)c(Nc4ccc(C(C)(C)N)cc4)c3c2)cc(Cl)c1O as well?
# output 0.0036

# input Would you mind doing O=C(c1cnc2ccc(-c3cc(Cl)c(O)c(Cl)c3)cc2c1N[C@H]1CC[C@H](CN2CC[C@@H](F)C2)CC1)C1CC1 as well?
# output 0.0043

# input Would you mind doing COc1cc(-c2ccc3ncc(C(=O)C4CC4)c(Nc4ccc(N5CCC[C@H](N)C5)nc4)c3c2)cc(Cl)c1O as well?
# output 0.0024

# input Would you mind doing CCOc1cc(-c2ccc3ncc(C(C)=O)c(N[C@H]4CC[C@H](N)CC4)c3c2)cc(Cl)c1O as well?
# output 0.0021

# input Would you mind doing COc1cc(-c2ccc3ncc(C(=O)C4CC4)c(N[C@H]4CC[C@@H](CN(C)CC#N)CC4)c3c2)cc(Cl)c1O as well?
# output 0.013

# input Would you mind doing CCCC(=O)c1cnc2ccc(-c3cc(F)c(O)c(Cl)c3)cc2c1N[C@H]1CC[C@H](N)CC1 as well?
# output 0.017

# input Would you mind doing COc1cc(-c2ccc3ncc(C(=O)C4CC4)c(N4CCC(C5CCNCC5)CC4)c3c2)cc(Cl)c1O as well?
# output 0.0042

# input Would you mind doing COc1cc(-c2ccc3ncc(C(=O)C4CC4)c(Nc4cnc(N5CCNCC5)nc4)c3c2)cc(Cl)c1O as well?
# output 0.0047

# input Would you mind doing CN(C)CC(O)c1ccc(Nc2c(C(=O)C3CC3)cnc3ccc(-c4cc(F)c(O)c(Cl)c4)cc23)cc1 (stereo not shown) as well?
# output 0.0059

# input Would you mind doing CCC(=O)c1cnc2ccc(-c3cc(Cl)c(O)c(Cl)c3)cc2c1Nc1ccc(CN(C)C)cc1 as well?
# output 0.0054

###

Biological target: MELK (Homo sapiens)
Assay: Kinase assay: MELK activity, phosphorylation of FITC-labeled histone H3 peptide measured by IMAP fluorescence polarization
Format: biochemical
Details: read-out: IC50 (μM) (kinase assay)
Entries and their measured IC50 follow.
Hi! Could you send only the number? It should be in µM, unit omitted.

# input Return reported IC50; argument: CN(C)CCc1cccc(Nc2c(C(=O)C3CC3)cnc3ccc(-c4cc(Cl)c(O)c(Cl)c4)cc23)c1
# output 0.0024

# input Would you mind doing COc1cc(-c2ccc3ncc(C(C)=O)c(Nc4ccc(N5CCN(C)CC5)nc4)c3c2)cc(Cl)c1O as well?
# output 0.016

# input Would you mind doing NC1CCCN(c2ncc(Nc3c(C(=O)C4CC4)cnc4ccc(-c5cc(F)c(O)c(Cl)c5)cc34)cn2)C1 (stereo not shown) as well?
# output 0.0011

# input Would you mind doing O=C(c1cnc2ccc(-c3cc(F)c(O)c(Cl)c3)cc2c1NC1CCC(N2CC[C@@H](F)C2)CC1)C1CC1 (stereo partly shown) as well?
# output 0.0075

# input Would you mind doing C[S+]([O-])c1cnc2ccc(-c3cc(F)c(O)c(Cl)c3)cc2c1N[C@H]1CC[C@H](N)CC1 (stereo partly shown) as well?
# output 0.046

# input Would you mind doing CC(=O)c1cnc2ccc(-c3cc(Cl)c(O)c(Cl)c3)cc2c1N[C@@H]1CC[C@@H](CN(C)C)C1 as well?
# output 0.0055

# input Would you mind doing NC1CCN(c2ncc(Nc3c(C(=O)C4CC4)cnc4ccc(-c5cc(F)c(O)c(Cl)c5)cc34)cn2)CC1 as well?
# output 0.0083

###

Biological target: MELK (Homo sapiens, UniProt Q14680)
Sequence (Q14680 whole entry, looked up): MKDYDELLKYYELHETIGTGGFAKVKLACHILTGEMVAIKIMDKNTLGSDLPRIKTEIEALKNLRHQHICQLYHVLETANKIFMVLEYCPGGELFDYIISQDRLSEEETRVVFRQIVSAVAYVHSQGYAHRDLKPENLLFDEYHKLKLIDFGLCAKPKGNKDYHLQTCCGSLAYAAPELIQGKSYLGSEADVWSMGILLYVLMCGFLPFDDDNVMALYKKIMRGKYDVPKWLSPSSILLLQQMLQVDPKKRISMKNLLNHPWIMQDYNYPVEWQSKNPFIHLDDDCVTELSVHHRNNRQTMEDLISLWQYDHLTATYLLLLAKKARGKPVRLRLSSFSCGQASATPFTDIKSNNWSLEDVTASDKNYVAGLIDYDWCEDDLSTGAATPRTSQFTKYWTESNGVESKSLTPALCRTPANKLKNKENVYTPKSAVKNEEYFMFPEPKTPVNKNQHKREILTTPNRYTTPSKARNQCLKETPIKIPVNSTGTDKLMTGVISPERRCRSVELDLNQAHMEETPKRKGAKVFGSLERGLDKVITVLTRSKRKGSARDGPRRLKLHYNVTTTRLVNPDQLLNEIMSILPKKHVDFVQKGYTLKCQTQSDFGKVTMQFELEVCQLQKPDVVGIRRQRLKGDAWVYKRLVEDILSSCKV
Assay: Kinase assay: MELK activity, phosphorylation of FITC-labeled histone H3 peptide measured by IMAP fluorescence polarization
Format: biochemical
Conditions: 50 micro-M ATP, FITC-labeled histone H3 peptide substrate, IMAP fluorescence polarization; read-out: IC50 (μM) (kinase assay)
value-kind: IC50 (µM)
Hi! Could you send only the number? It should be in µM, unit omitted.

CN(C)Cc1ccc(Nc2c(S(C)(=O)=O)cnc3ccc(-c4ccc(O)c(Cl)c4)cc23)cc1 [Example 411]    0.0091

# input Item: N#Cc1cnc2ccc(-c3ccc(O)c(Cl)c3)cc2c1N1CCC(CN2CCCC2)CC1 [Example 433] Test system: MELK (Homo sapiens, UniProt Q14680) Read-out: IC50 Value: ?
# output 0.043

# input Would you mind doing COc1cc(-c2ccc3ncc(C(=O)C4CC4)c(N4CCC(CN(C)C)CC4)c3c2)cc(Cl)c1O [Example 276] as well?
# output 0.0008

# input Would you mind doing COc1cc(-c2ccc3ncc(C(=O)C4CC4)c(NCC4CCNCC4)c3c2)cc(Cl)c1O [Example 243] as well?
# output 0.0044

# input Would you mind doing COc1cc(-c2ccc3ncc(C#N)c(N4CCC(CN5CCCC5)CC4)c3c2)cc(Cl)c1O [Example 428] as well?
# output 0.0037

# input Would you mind doing CN1CCN(c2ccc(-c3c(C(=O)C4CC4)cnc4ccc(-c5cc(Cl)c(O)c(Cl)c5)cc34)cc2)CC1 [Example 430] as well?
# output 0.033

# input Would you mind doing N[C@H]1CC[C@H](Nc2c(C(=O)C3CC3)cnc3ccc(-c4cn[nH]c4)cc23)CC1 [Example 213] as well?
# output 0.067

# input Would you mind doing COc1cc(-c2ccc3ncc(C(=O)C4CC4)c(N[C@H]4CC[C@H](N(C)C)CC4)c3c2)cc(Cl)c1O [Example 255] as well?
# output 0.0019

# input Would you mind doing COc1cc(-c2ccc3ncc(C(=O)C4CC4)c(NC[C@H]4CC[C@H](N(C)C)CC4)c3c2)cc(Cl)c1O [Example 315] as well?
# output 0.0043

###

Target: MELK (Homo sapiens)
Experiment: Kinase assay: MELK activity, phosphorylation of FITC-labeled histone H3 peptide measured by IMAP fluorescence polarization
Type: biochemical
Details: read-out: IC50 (μM) (kinase assay)
Structures can show the parent of a compound that is named as a salt.
Category key, based on recorded IC50: zone 1: < 0.004 µM; zone 2: ≥ 0.004 µM and < 0.01 µM; zone 3: ≥ 0.01 µM

Example cases with answers are listed next.
O=C(c1cnc2ccc(-c3cc(F)c(O)c(Cl)c3)cc2c1Nc1cnn(C2CCNCC2)c1)C1CC1    zone 1
CC(C)C(=O)c1cnc2ccc(-c3cc(Cl)c(O)c(Cl)c3)cc2c1Nc1ccc(CN(C)C)cc1    zone 2
CC(=O)c1cnc2ccc(-c3cc(F)c(O)c(Cl)c3)cc2c1Nc1ccc(N2CCC(N)C2)nc1 (centres unmarked)    zone 2
CN(C)CCNc1ccc(Nc2c(C(=O)C3CC3)cnc3ccc(-c4cc(Cl)c(O)c(Cl)c4)cc23)cn1    zone 2
CC(=O)c1cnc2ccc(-c3cc(F)c(O)c(Cl)c3)cc2c1N[C@H]1CC[C@H](N(C)C)CC1    zone 2
O=C(c1cnc2ccc(-c3ccc(O)c(Cl)c3)cc2c1Nc1cnn(C2CCNCC2)c1)C1CC1    zone 1
CN(C)C[C@]1(O)CC[C@@H](Nc2c(C(=O)C3CC3)cnc3ccc(-c4cc(Cl)c(O)c(Cl)c4)cc23)CC1    zone 1
COc1cc(-c2ccc3ncc(C(=O)C4CC4)c(Nc4ccc(N5CCC(O)C5)nc4)c3c2)cc(Cl)c1O (centres unmarked)    zone 3
COc1cc(-c2ccc3ncc(C(C)=O)c(N[C@H]4CC[C@H](CN5CCCC(N)C5)CC4)c3c2)cc(Cl)c1O (some centres unmarked) [Example 809, hydrochloride]    zone 3
O=C(c1cnc2ccc(-c3cc(F)c(O)c(Cl)c3)cc2c1Nc1ccc(NCCO)nc1)C1CC1    zone 3

# input Pick a category. Item: COc1cc(-c2ccc3ncc(C(=O)C4CC4)c(Nc4ccc(CN5CCCC5)nc4)c3c2)cc(Cl)c1O
# output zone 3

# input Would you mind doing CNC1CCN(c2ccc(Nc3c(C(C)=O)cnc4ccc(-c5cc(F)c(O)c(Cl)c5)cc34)cn2)C1 (centres unmarked) [Example 785, trihydrochloride] as well?
# output zone 2

# input Would you mind doing N[C@H]1CC[C@H](Nc2c(C(=O)C3CC3)cnc3c(F)cc(-c4cc(Cl)c(O)c(Cl)c4)cc23)CC1 as well?
# output zone 3

# input Would you mind doing O=C(c1cnc2ccc(-c3cc(Cl)c(O)c(Cl)c3)cc2c1N[C@H]1CC[C@H](CN2CCC(O)C2)CC1)C1CC1 (some centres unmarked) as well?
# output zone 1
